test system: Plasmodium falciparum; experiment: Calibr Malaria Delayed Death Assay SOP; format: functional, organism-based; design: scale not given: in the data most compounds retested in dose-response had high values; settings: concentration 4.99e-06 (unit not given; other assays of the set use mol/L)
In all, about 38,000 compounds went through this assay and about 1,200 (3.2%) showed an effect of 50% or more. The median lay at about -58%. This is one part of a sample in which strong results are shown more often than they occur.
Use MET when the recorded Percent Effect is no lower than -60%; use NOT MET when it is lower.

Consider the following illustrative entries.
CCc1cnc(N)nc1NCCn1cc(Cl)cn1 : MET
Cc1cc(Br)ccc1C(=O)NCCN1CCCCCC1 : MET
Cc1nc2c(c(NC3CCN(Cc4ccccc4)CC3)n1)CCNCC2 : MET
CC(C)c1nccn1-c1cncc(C2CCCN(C3CCCCC3)C2)n1 (configuration not stated) : MET
Cn1cc(Br)c(C(=O)NCCCn2cc(Cl)cn2)n1 : NOT MET
Cc1ccc2c(n1)N(CCn1cccn1)CCN(S(C)(=O)=O)C2.O=C(O)C(F)(F)F : NOT MET
Cc1cccc(N2CCN(C(=O)CNCCn3cc(C)cn3)CC2)c1 : NOT MET
c1ccc(CCCN2CCOC(Cn3cccn3)C2)cc1 (configuration not stated) : MET
Cc1ccc2c(n1)N(CCn1cccn1)CCN(CC1CC1)C2.O=C(O)C(F)(F)F.O=C(O)C(F)(F)F : MET
CCc1nccn1-c1cccc(C2CCCN(C3CCCCC3)C2)n1 (configuration not stated) : MET

In the following, a different molecule is considered.
Prompt: Check the entry `CCc1cnc(N)nc1NCCC(=O)NC1CCCCC1` : does Percent Effect equal or exceed -60%?
Completion: NOT MET

###

Below, each entry is listed with its recorded Percent Effect.
test system: Plasmodium falciparum; test: Calibr Malaria Delayed Death Assay SOP; type: functional, organism-based; design: scale not given: in the data most compounds retested in dose-response had high values; conditions: concentration 4.99e-06 (unit not given; other assays of the set use mol/L)
In all, about 38,000 compounds went through this assay and about 1,200 (3.2%) showed an effect of 50% or more. The median lay at about -58%. This is one part of a sample in which strong results are shown more often than they occur.
Use % as the unit, but write only the number.

CN1[C@H](Cn2cccn2)C[C@@H]2CN(Cc3cccs3)CC[C@@H]21.O=C(O)C(F)(F)F.O=C(O)C(F)(F)F.O=C(O)C(F)(F)F : 75.74
Fc1ccc(CN2CCC3(CCCN(c4nncs4)C3)C2)cc1.O=C(O)C(F)(F)F (stereo not drawn) : -107.3

Prompt: Consider the compound `COc1ccccc1CCN(C)Cc1nc(N)nc(N(C)C)n1` and give its measured Percent Effect.
Completion: 69.03

Prompt: Consider the compound CCc1nc(C2CCCN2CC(=O)Nc2cc(C)nn2C)no1 (stereo not drawn) and give its measured Percent Effect.
Completion: -146.1

Prompt: Consider the compound `Cc1c(C)n(-c2ccccn2)c2nc3c(c(N)c12)CCCC3` and give its measured Percent Effect.
Completion: 19.64

Prompt: Consider the compound CCOC1COC2(CCN(Cc3cccc(C)n3)CC2)C1.O=C(O)C(F)(F)F (stereo not drawn) and give its measured Percent Effect.
Completion: -37.49

Prompt: Consider the compound Fc1cnc(N2CCCC3(CCN(Cc4ccoc4)C3)C2)nc1.O=C(O)C(F)(F)F.O=C(O)C(F)(F)F (stereo not drawn) and give its measured Percent Effect.
Completion: 72.25

Prompt: Consider the compound Cc1cccc(COC2COC3(CCN(S(C)(=O)=O)CC3)C2)n1.O=C(O)C(F)(F)F (stereo not drawn) and give its measured Percent Effect.
Completion: -59.75

Prompt: Consider the compound O=C(c1ccco1)N1CCC2(CCCN(c3ncc(F)cn3)C2)C1 (stereo not drawn) and give its measured Percent Effect.
Completion: -116

Prompt: Consider the compound `Cc1nn(C)c(C)c1-c1ccnc(N(C)Cc2nc(C(C)C)no2)n1` and give its measured Percent Effect.
Completion: 65.96

Prompt: Consider the compound `CN(CC(=O)Nc1cccc(F)c1)Cc1nc(N)nc(N(C)C)n1` and give its measured Percent Effect.
Completion: -117.7

Prompt: Consider the compound `Cc1c(C)n(Cc2ccncc2)c2nc3c(c(N)c12)CCCCCC3` and give its measured Percent Effect.
Completion: 27.24

Prompt: Consider the compound Fc1cnc(N2CCCC3(CCN(Cc4ccco4)C3)C2)nc1.O=C(O)C(F)(F)F.O=C(O)C(F)(F)F (stereo not drawn) and give its measured Percent Effect.
Completion: 77

Prompt: Consider the compound CCC(C)[C@H](N)c1nnc(SCC(=O)Nc2ccc(C)cc2C)o1.Cl (stereo partly drawn) and give its measured Percent Effect.
Completion: -23.34

Prompt: Consider the compound `CCCc1nc2c(c(C)c(C)n2Cc2cccnc2)c(N)c1CC` and give its measured Percent Effect.
Completion: 64.11

Prompt: Consider the compound O=C(c1ccnc(N2CCOC(C(F)(F)F)C2)c1)N1CCCC1 (stereo not drawn) and give its measured Percent Effect.
Completion: -34.44

Prompt: Consider the compound CCN1CCC2(CC1)CC(NCc1cccc(C)n1)c1ccccc1O2.O=C(O)C(F)(F)F.O=C(O)C(F)(F)F.O=C(O)C(F)(F)F (stereo not drawn) and give its measured Percent Effect.
Completion: 91.27

Prompt: Consider the compound CC1CCCN(C(=O)Nc2ccc(F)c(C(N)=O)c2)C1 (stereo not drawn) and give its measured Percent Effect.
Completion: -56.74

Prompt: Consider the compound O=S(=O)(NCC(O)c1ccoc1)c1ccc(Br)s1 (stereo not drawn) and give its measured Percent Effect.
Completion: -179.3

Prompt: Consider the compound `Cc1cc(CN2CCC(CNS(=O)(=O)c3ccc(C)s3)CC2)c(C)o1` and give its measured Percent Effect.
Completion: 87.35
